- protocol_summary: Binding affinity to chymotrypsin (unknown origin)
- condition_details: Homo sapiens
measured_attribute: log(1/Km)
// return just the number, without any unit appended

Some solved cases for reference:
CCOC(=O)[C@H](Cc1ccccc1)NC(C)=O 2.96
CC(=O)c1ccc(OC(=O)[C@H](Cc2ccccc2)NS(C)(=O)=O)cc1 4.89

Lab note: measured log(1/Km) of CC(=O)N[C@H](C(=O)OC(C)C)C(C)C was 0.75

According to the records, this molecule Cc1ccc(OC(=O)CNC(=O)c2ccccc2)cc1 displays log(1/Km) of 3.87

Entry under test: Nc1ccc(OC(=O)CNC(=O)c2ccccc2)cc1 . Its log(1/Km) was 3.77
